Reference source: ChEMBL document CHEMBL3272108

PROCEDURE SUMMARY: Acute toxicity in ip dosed CF1 mouse
CONDITION SET: in vivo
# LD50 values compiled below
RECORDED ENDPOINT: LD50 (µmol/kg)

1) Cl.c1ccc(CN2CC3CC(C2)CN(Cc2ccccc2)C3)cc1: 199
2) CC(C)N(CCC(C(N)=O)(c1ccccc1)c1ccccn1)C(C)C (stereo not given) [DISOPYRAMIDE]: 504
3) C1CCN2C[C@@H]3C[C@@H](CN4CCCC[C@@H]34)[C@H]2C1.O.O.O.O.O.O=S(=O)(O)O [SPARTEINE SULFATE]: 134
4) Br.CCCCN1CC2CC(CN(C)C2)C1: 207
5) CCCCN1CC2CC(C1)CN(CCCC)C2.Cl: 196
